Each record here notes measured cell viability of combination.
test system: UCD52 (cells of a triple-negative basal-like breast cancer xenograft); assay: cell viability of combination (% of vehicle); higher = less cytotoxic; conditions: 1 µM; 72 h; partner dose: 10 nM

compound	assayedTarget	cell viability of combination
C=C1C(=CC=C2CCCC3(C)C2CCC3C(C)CCCC(C)C)CC(O)CC1O (centres undefined) [Alfacalcidol] + CN(C)C/C=C/C(=O)Nc1cc2c(Nc3ccc(F)c(Cl)c3)ncnc2cc1O[C@H]1CCOC1	UCD52	50
Cn1cnc2c(F)c(Nc3ccc(Br)cc3F)c(C(=O)NOCCO)cc21 + CN(C)C/C=C/C(=O)Nc1cc2c(Nc3ccc(F)c(Cl)c3)ncnc2cc1O[C@H]1CCOC1	UCD52	54
Cl.OC(CNCC(O)C1CCc2cc(F)ccc2O1)C1CCc2cc(F)ccc2O1 (centres undefined) [Nebivolol] + CN(C)C/C=C/C(=O)Nc1cc2c(Nc3ccc(F)c(Cl)c3)ncnc2cc1O[C@H]1CCOC1	UCD52	64.9
Nc1ccc2cc3ccc([NH3+])cc3nc2c1.Nc1ccc2cc3ccc([NH3+])cc3nc2c1.O=S(=O)([O-])[O-] [Proflavine Hemisulfate] + CN(C)C/C=C/C(=O)Nc1cc2c(Nc3ccc(F)c(Cl)c3)ncnc2cc1O[C@H]1CCOC1	UCD52	116

* * *

Each record here notes measured cell viability.
test system: UCD52; assay: cell viability (% of vehicle); higher = less cytotoxic; details: 10 µM; 72 h
Where a name gives a salt, the structure may show the parent alone.
measuredMetric: cell viability

> print(dat)
                                    compound  measuredmetric  assayvalue
 1  CC1OC(n2cc(F)c(=O)[nH]c2=O)C(O)C1O (stereo not given)  cell viability          93
 2  OCCN(CCO)c1nc(N2CCCCC2)c2nc(N(CCO)CCO)nc(N3CCCCC3)c2n1  cell viability        89.6
 3  O=c1oc2c(O)c(O)cc3c(=O)oc4c(O)c(O)cc1c4c23  cell viability         104
 4  CCCCCCCCCCCC(CC1OC(=O)C1CCCCCC)OC(=O)C(CC(C)C)NC=O (stereo not given)  cell viability        76.1
 5  O=C(O)CC(O)CC(O)C=Cc1c(C2CC2)nc2ccccc2c1-c1ccc(F)cc1 (stereo not given)  cell viability        74.9
 6  NCC(=O)CCC(=O)O [5-Aminolevulinic acid HCl]  cell viability        82.6
 7   COC(=O)Nc1nc2cc(C(=O)c3ccccc3)ccc2[nH]1  cell viability         103
 8  O=C(NN=Cc1ccc([N+](=O)[O-])o1)c1ccc(O)cc1 [Nifuroxazide]  cell viability        62.2
 9  CCCNCC(O)COc1ccccc1C(=O)CCc1ccccc1.Cl (stereo not given) [Propafenone HCl]  cell viability        76.9
10  COc1c(C)c2c(c(O)c1CC=C(C)CCC(=O)OCCN1CCOCC1)C(=O)OC2 [Mycophenolate Mofetil]  cell viability        91.4
11                    S=P(N1CC1)(N1CC1)N1CC1  cell viability        96.8
12                   Oc1c(Cl)cc(Cl)c2cccnc12  cell viability         120
13  O=C1NC(=O)[C@@H](c2c[nH]c3ccccc23)[C@H]1c1cn2c3c(cccc13)CCC2 [Tivantinib (ARQ 197)]  cell viability        81.8
14  CCc1cc(C(C)=NOCc2ccc(C3CCCCC3)c(C(F)(F)F)c2)ccc1CN1CC(C(=O)O)C1 [BAF312 (Siponimod)]  cell viability        93.7
15  CCN(CC)CCNC(=O)c1cc(Cl)c(N)cc1OC [Metoclopramide]  cell viability          98
16  CC(C)(C)C(=O)OCOP(=O)(COCCn1cnc2c(N)ncnc21)OCOC(=O)C(C)(C)C  cell viability         101
17  CC(C)(C(=O)O)c1ccc(C(O)CCCN2CCC(C(O)(c3ccccc3)c3ccccc3)CC2)cc1.Cl (stereo not given) [Fexofenadine HCl]  cell viability        87.7
18  CCCC(=O)Nc1ccc(OCC(O)CNC(C)C)c(C(C)=O)c1.Cl (stereo not given) [Acebutolol HCl]  cell viability        97.1
19  CCOC(=O)OC1(C(=O)OCCl)CCC2C3CCC4=CC(=O)C=CC4(C)C3C(O)CC21C (stereo not given) [Loteprednol etabonate]  cell viability         158
20  COc1cc(C=CC(=O)N2CCN(CC(=O)N3CCCC3)CC2)cc(OC)c1OC.O=C(O)C=CC(=O)O [Cinepazide maleate]  cell viability         121
21           Cc1ccnc2c1NC(=O)c1cccnc1N2C1CC1  cell viability        96.8
22  CC1=NS(=O)(=O)c2cc(Cl)ccc2N1 [Diazoxide]  cell viability         104
23     COc1ccccc1OCC(O)CO (stereo not given)  cell viability        91.7
24                 CCCc1cc(=O)[nH]c(=S)[nH]1  cell viability        91.2
25  N[C@@H](Cc1cc(I)c(Oc2cc(I)c(O)c(I)c2)c(I)c1)C(=O)O  cell viability          85
26  NC(=O)c1ncn(C2OC(CO)C(O)C2O)n1 (stereo not given)  cell viability        96.4
27  CNCC(O)c1ccc(O)c(O)c1 (stereo not given)  cell viability         112
28  CN(C)CC=CC(=O)Nc1cc2c(Nc3ccc(F)c(Cl)c3)ncnc2cc1OC1CCOC1 (stereo not given)  cell viability        18.7
29    OCCOCCN1CCN(C2=Nc3ccccc3Sc3ccccc32)CC1  cell viability         101
30  CC1=C(CC(=O)O)c2cc(F)ccc2C1=Cc1ccc(S(C)=O)cc1 (stereo not given)  cell viability        97.3
31  C#CC1(O)CCC2C3CCc4cc(OC)ccc4C3CCC21C (stereo not given)  cell viability        71.2
32  CC#CC1(O)CCC2C3CCC4=CC(=O)CCC4=C3C(c3ccc(N(C)C)cc3)CC21C (stereo not given)  cell viability        73.3
33     CC(=O)OCC(CCn1cnc2cnc(N)nc21)COC(C)=O  cell viability        85.3
34  C[C@H](C(=O)O)c1ccc(-c2ccccc2)c(F)c1 [(S)-Flurbiprofen]  cell viability         103
35          Cc1ccnc(NS(=O)(=O)c2ccc(N)cc2)n1  cell viability        86.8

* * *

Each record here notes measured cell viability.
system: HCI11 (cells of an ER-positive luminal breast cancer xenograft); test: cell viability (% of vehicle); higher = less cytotoxic; details: 10 µM; 72 h
measuredMetric: cell viability

> print(dat)
                                   compound  assayedtarget  assayvalue
1  CC12CCC3c4ccc(O)cc4CCC3C1CCC2O (centres undefined) [Estradiol]          HCI11          93
2  C=C1c2cccc(O)c2C(O)=C2C(=O)C3(O)C(O)=C(C(N)=O)C(=O)C(N(C)C)C3C(O)C12.Cl (centres undefined) [Methacycline HCl]          HCI11        81.8
3  CCOC(=O)C(CCc1ccccc1)NC1CCc2ccccc2N(CC(=O)O)C1=O.Cl (centres undefined) [Benazepril HCl]          HCI11        93.5
4  CN(C)CCc1c[nH]c2ccc(CC3COC(=O)N3)cc12 (centres undefined) [Zolmitriptan]          HCI11          96

* * *

system: HCI03 (cells of an ER-positive luminal breast cancer xenograft); assay: cell viability (% of vehicle); higher = less cytotoxic; conditions: 10 µM; 72 h
Counter-ions that a name gives are not always drawn.

compound	cell viability
CCCCNC(=O)NS(=O)(=O)c1ccc(C)cc1 [Tolbutamide]	118
O=C(c1ccc(F)c(F)c1Nc1ccc(I)cc1F)N1CC(O)(C2CCCCN2)C1 (configuration not stated) [Cobimetinib]	80.6
NC(=O)c1ncn(C2OC(CO)C(O)C2O)n1 (configuration not stated) [Ribavirin]	148
COc1ccc(C2(C#N)CCC(C(=O)O)CC2)cc1OC1CCCC1 (configuration not stated) [Cilomilast]	114
N[C@@H](CCC(=O)N[C@@H](CS)C(=O)NCC(=O)O)C(=O)O [L-Glutathione Reduced]	115
CC12C=CC(=O)C=C1CCC1C2C(=O)CC2(C)C1CCC2(O)C(=O)CO (configuration not stated) [Prednisone]	93.9
S=P(N1CC1)(N1CC1)N1CC1	143
Nc1nc(N)c2nc(-c3ccccc3)c(N)nc2n1 [Triamterene]	148
Cc1cnc(C(=O)O)c[n+]1[O-] [Acipimox]	159
C[N+](C)(CCOc1ccccc1)Cc1ccccc1.O=C(O)c1cc2ccccc2cc1[O-] [Bephenium Hydroxynaphthoate]	127
O=P(O)(O)C(O)(Cn1ccnc1)P(=O)(O)O [Zoledronic Acid]	135
COc1cc2c(cc1OC)C(=O)C(CC1CCN(Cc3ccccc3)CC1)C2.Cl (configuration not stated) [Donepezil HCl]	89.9
CC1C(NC(=O)C(=NOC(C)(C)C(=O)O)c2csc(N)n2)C(=O)N1S(=O)(=O)O (configuration not stated) [Aztreonam]	113
CN[C@H](CC(C)C)C(=O)N[C@H]1C(=O)N[C@@H](CC(N)=O)C(=O)N[C@H]2C(=O)N[C@H]3C(=O)N[C@H](C(=O)N[C@H](C(=O)O)c4cc(O)cc(O)c4-c4cc3ccc4O)[C@H](O)c3ccc(c(Cl)c3)Oc3cc2cc(c3O[C@@H]2O[C@H](CO)[C@@H](O)[C@H](O)[C@H]2O[C@H]2C[C@](C)(N)[C@H](O)[C@H](C)O2)Oc2ccc(cc2Cl)[C@H]1O [Vancomycin hydrochloride]	110
CN1CCN(c2nc(C3=C(c4c[nH]c5ccccc45)C(=O)NC3=O)c3ccccc3n2)CC1 [Sotrastaurin (AEB071)]	102
CC1(C(=O)[O-])CCC2(C)CCC3(C)C(=CC(=O)C4C5(C)CCC(OC(=O)CCC(=O)[O-])C(C)(C)C5CCC43C)C2C1.[Na+].[Na+] (configuration not stated) [Carbenoxolone disodium]	122
CN(C)C(=O)COC(=O)Cc1ccc(OC(=O)c2ccc(N=C(N)N)cc2)cc1.CS(=O)(=O)O [Camostat Mesilate]	133
